Growth Rate: recorded values
system: Fibroblast; assay: Incucyte cell viability with human fibroblast; format: toxicity, cell-based; details: 24 h, 10 µM, compound concentration 10 uM, replicate number 1, timepoint 24 hours; note: filed as whole numbers so only -1 and 0 and 1 occur
ASSAY METRIC: Growth Rate

1) CCN1CCC[C@H]1CNC(=O)c1c(OC)ccc(Br)c1OC [REMOXIPRIDE] ... 1
2) CC(/C=C1\SC(=S)N(CCCC(=O)Nc2ccc(C(=O)O)c(O)c2)C1=O)=C\c1ccccc1 ... 1
3) C[C@@H](N)Cc1c[nH]cn1.Cl.Cl ... 0
4) Cc1c(P(=S)(c2ccccc2)c2ccccc2)n2ccccc2[n+]1C/C=C/c1ccccc1.[Br-] ... 0
5) Cc1c(C2=CCN(C(=O)N(C)C(C)C)CC2)nnn1-c1cccnc1F ... 0
6) Cc1c(Nc2ccc(S(=O)(=O)N3CCN(C)CC3)cc2F)nc2ccc(Nc3cnn(C4CC4)c3)cn2c1=O ... 0
7) Cc1cc2c(cc1C1(c3ccc(C(=O)O)cn3)CC1)C(C)(C)CCC2(C)C ... 0
8) CCN(Cc1ccc(Cl)cc1)c1ncc(C(=O)NCCCN2CCCC2=O)c(NC2CCCC2)n1 ... 1
9) CC(C)(C)c1ccc(C(=O)Nc2cn3cc(-n4ccnc4)ccc3n2)cc1.Cl.Cl ... 1

* * *

Population Tubulin-Different-Phenotype (%): recorded values
test system: HEK-293T; test: Multiplex assay against HEK293T; format: toxicity, cell-based; settings: human, 12 h, 1 µM, compound concentration 1 uM, replicate 1;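 for Population Tubulin-Different-Phenotype (%): share of the cells with healthy nuclei that show this phenotype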
ASSAY METRIC: Population Tubulin-Different-Phenotype (%)

1. CC(C)[C@H](CO)Nc1nc(Nc2cccc(Cl)c2)c2ncn(C(C)C)c2n1 ... 53
2. CC(C)c1cc(Nc2nc(N3CCC[C@H](N)C3)ncc2C(N)=O)cc(C(C)C)n1 ... 100
3. Cl.Cn1c2c(c3ccc(Cl)c(Cl)c31)C(C#N)C1(CCNCC1)NC2=O (stereo not drawn) ... 10
4. Cc1c(Nc2ccc(S(=O)(=O)N3CCN(C)CC3)cc2F)nc2ccc(Nc3cnn(C4CC4)c3)cn2c1=O ... 47
5. Cc1ccc(NC(=O)Nc2cc(C(F)(F)F)ccc2F)cc1Nc1ccc2c(c1)NC(=O)/C2=C\c1ccc[nH]1 ... 28
6. CN1C(=O)[C@@H](NC(=O)c2cc3ccccc3[nH]2)N=C(c2ccccc2)c2ccccc21 [DEVAZEPIDE] ... 50
7. Oc1cccc(-c2nc(N3CCOCC3)c3oc4ncccc4c3n2)c1 ... 82
8. NC(=O)c1ccc2nc(-c3ccc(C4(N)CCC4)cc3)c(-c3ccccc3)n2n1 ... 26
9. CCOC(=O)CCNc1cc(N2CCc3ccccc3CC2)nc(-c2ccccn2)n1 ... 4
10. CCCc1cc(C)[nH]c(=O)c1CNC(=O)c1cc(-c2ccc(N3CCN(C(C)C)CC3)nc2)cc2c1cnn2C(C)C ... 86
11. CCCCCNC(=N)N/N=C/c1c[nH]c2ccc(OC)cc12.O=C(O)/C=C\C(=O)O [TEGASEROD MALEATE] ... 52
12. N#CCNC(=O)c1ccc(-c2ccnc(Nc3ccc(N4CCOCC4)cc3)n2)cc1 ... 33
13. C=CC(=O)Nc1cc(-n2c(=O)ccc3cnc4ccc(-c5ccc(NS(C)(=O)=O)cc5)cc4c32)ccc1C ... 50
14. CCCCN(CC)c1nc(C)nc2c1c(C)cn2-c1c(C)cc(C)cc1C.Cl ... 32
15. Cc1ccc(S(=O)(=O)NC2c3ccccc3Oc3ccccc32)cc1 ... 27
16. Cl.NC[C@@H]1O[C@H](C23CC4CC(CC(C4)C2)C3)Cc2c1ccc(O)c2O ... 55
17. Cc1c(Nc2ccc(S(=O)(=O)N3CCN(C)CC3)cc2F)nc2ccc(-c3cnn(C4CC4)c3)cn2c1=O ... 6
18. CCOc1ccn(-c2ccc(F)cc2)c(=O)c1C(=O)Nc1ccc(Oc2ccnc(N)c2Cl)c(F)c1 ... 22

* * *

system: HEK-293T; experiment: Multiplex assay against HEK293T; assay type: toxicity, cell-based; conditions: human, 48 h, 10 µM, compound concentration 10 uM, replicate 2
Class membership depends on Population Mitochondria Different-Phenotype (%) alone; the intervals are low-valued: < 20%; mid-valued: ≥ 20% and < 70%; high-valued: ≥ 70%

1) C[C@@H](Oc1cc(-n2cnc3ccc(CN4CCN(C)CC4)cc32)sc1C(N)=O)c1ccccc1C(F)(F)F [GSK-461364] ... high-valued
2) CC(Cc1ccc(O)c(O)c1)C(C)Cc1ccc(O)c(O)c1 (centres undefined) [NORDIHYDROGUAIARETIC ACID] ... low-valued
3) CN1CCN(Cc2ccc(-c3cnc4[nH]cc(-c5ccc6[nH]ccc6c5)c4c3)cc2)CC1 ... high-valued
4) CCCCN(CC)c1nc(C)nc2c1c(C)cn2-c1c(C)cc(C)cc1C.Cl ... mid-valued
5) C=CC(=O)Nc1cc(-n2c(=O)ccc3cnc4ccc(-c5ccc(NS(C)(=O)=O)cc5)cc4c32)ccc1C ... low-valued
6) CC(C)C[C@H](NC(=O)[C@H](Cc1ccccc1)NC(=O)CNC(=O)CNC(=O)[C@@H](N)Cc1ccc(O)cc1)C(=O)O [ENKEPHALIN] ... low-valued
7) CN(c1cc(C(F)(F)F)nc(OCCC(=O)O)n1)c1cccc2c1CCC2 ... low-valued
8) N#CCNC(=O)c1ccc(-c2ccnc(Nc3ccc(N4CCOCC4)cc3)n2)cc1 [MOMELOTINIB] ... mid-valued
9) CCCc1cc(C)[nH]c(=O)c1CNC(=O)c1cc(-c2ccc(N3CCN(C(C)C)CC3)nc2)cc2c1cnn2C(C)C ... high-valued
10) CN1C(=O)[C@@H](NC(=O)c2cc3ccccc3[nH]2)N=C(c2ccccc2)c2ccccc21 [DEVAZEPIDE] ... mid-valued
11) CC(C)c1cc(Nc2nc(N3CCC[C@H](N)C3)ncc2C(N)=O)cc(C(C)C)n1 ... mid-valued
12) CC(C)[C@H](CO)Nc1nc(Nc2cccc(Cl)c2)c2ncn(C(C)C)c2n1 [PURVALANOLA] ... high-valued
13) c1ccc(-c2oc3ncnc(NC[C@@H]4CCCO4)c3c2-c2ccccc2)cc1 ... mid-valued
14) Oc1cccc(-c2nc(N3CCOCC3)c3oc4ncccc4c3n2)c1 [PI-103] ... high-valued
15) N#Cc1cccc(C(=O)Nc2cc(-c3ccccc3)nn2-c2ccccc2)c1 ... mid-valued
16) Cc1c(P(=S)(c2ccccc2)c2ccccc2)n2ccccc2[n+]1C/C=C/c1ccccc1.[Br-] ... high-valued
17) CCCCCNC(=N)N/N=C/c1c[nH]c2ccc(OC)cc12.O=C(O)/C=C\C(=O)O [TEGASEROD MALEATE] ... mid-valued
18) CC(/C=C1\SC(=S)N(CCCC(=O)Nc2ccc(C(=O)O)c(O)c2)C1=O)=C\c1ccccc1 ... low-valued

* * *

system: Fibroblast; test: Multiplex assay against human fibroblast; assay type: toxicity, cell-based; conditions: 48 h, 10 µM, compound concentration 10 uM, replicate 1
Response field label takes Fulfilled when Population Healthy Nuclei (%) is strictly below 50% and Not fulfilled in all other cases.

1. CC(/C=C1\SC(=S)N(CCCC(=O)Nc2ccc(C(=O)O)c(O)c2)C1=O)=C\c1ccccc1 ... Fulfilled
2. Cc1c(Nc2ccc(S(=O)(=O)N3CCN(C)CC3)cc2F)nc2ccc(-c3cnn(C4CC4)c3)cn2c1=O ... Fulfilled
3. CN1CCN(Cc2ccc(-c3cnc4[nH]cc(-c5ccc6[nH]ccc6c5)c4c3)cc2)CC1 ... Fulfilled
4. CC(C)C[C@H](NC(=O)[C@H](Cc1ccccc1)NC(=O)CNC(=O)CNC(=O)[C@@H](N)Cc1ccc(O)cc1)C(=O)O ... Not fulfilled
5. CCCCCNC(=N)N/N=C/c1c[nH]c2ccc(OC)cc12.O=C(O)/C=C\C(=O)O [TEGASEROD MALEATE] ... Fulfilled
6. CN1C(=O)[C@@H](NC(=O)c2cc3ccccc3[nH]2)N=C(c2ccccc2)c2ccccc21 [DEVAZEPIDE] ... Fulfilled

* * *

tested on: HEK-293T; assay: Multiplex assay against HEK293T; assay type: toxicity, cell-based; conditions: human, 12 h, 10 µM, compound concentration 10 uM, replicate 2
Total Cell Count: recorded values
ASSAY METRIC: Total Cell Count

1) Cl.NC[C@@H]1O[C@H](C23CC4CC(CC(C4)C2)C3)Cc2c1ccc(O)c2O ... 204
2) CCCc1cc(C)[nH]c(=O)c1CNC(=O)c1cc(-c2ccc(N3CCN(C(C)C)CC3)nc2)cc2c1cnn2C(C)C ... 151
3) CCOc1ccn(-c2ccc(F)cc2)c(=O)c1C(=O)Nc1ccc(Oc2ccnc(N)c2Cl)c(F)c1 ... 1444
4) c1ccc(-c2oc3ncnc(NC[C@@H]4CCCO4)c3c2-c2ccccc2)cc1 ... 218
5) N#Cc1cccc(C(=O)Nc2cc(-c3ccccc3)nn2-c2ccccc2)c1 ... 174
6) CN1C(=O)[C@@H](NC(=O)c2cc3ccccc3[nH]2)N=C(c2ccccc2)c2ccccc21 [DEVAZEPIDE] ... 228
7) C[C@@H](Oc1cc(-n2cnc3ccc(CN4CCN(C)CC4)cc32)sc1C(N)=O)c1ccccc1C(F)(F)F ... 187
8) CC[C@@H]1C(=O)N(C)c2cnc(Nc3ccc(C(=O)NC4CCN(C)CC4)cc3OC)nc2N1C1CCCC1 ... 911
